# target or system: rat brain cortical membranes (GABA receptor complex, [35S]-TBPS binding)
# assay overview: Steroid inhibition of [35S]-TBPS binding
# condition notes: 3 nM [35S]-TBPS, in the presence of 5 mM GABA
pIC50: −log10 of the molar value.
Entries and their pIC50 values follow.

// solved cases for pIC50 follow
> print(dat)
                  compound.structure.string  property.name  measured.result
1  Cc1nnn(CC(=O)[C@H]2CC[C@H]3[C@@H]4[C@H](C)C[C@H]5C[C@](C)(O)CC[C@]5(C)[C@H]4CC[C@]23C)n1          pIC50           ≤ 6.30
2  CC(=O)[C@H]1CC[C@H]2[C@@H]3[C@H](C)C[C@H]4C[C@](C)(O)CC[C@]4(C)[C@H]3CC[C@]12C          pIC50           ≤ 6.30

Okay, next one:
The reported pIC50 of the compound COC[C@H]1C[C@H]2C[C@](C)(O)CC[C@]2(C)[C@H]2CC[C@]3(C)[C@@H](C(=O)Cn4nc5ccc(OC)cc5n4)CC[C@H]3[C@H]12 was ≤ 6.30

###

# target or system: rat brain cortical membranes (GABA receptor complex, [35S]-TBPS binding)
# assay overview: Steroid inhibition of [35S]-TBPS binding
# condition notes: 3 nM [35S]-TBPS, in the presence of 5 mM GABA
pIC50: −log10 of the molar value.
Entries and their pIC50 values follow.

// solved cases for pIC50 follow
> print(dat)
                  compound.structure.string  property.name  measured.result
1  CC[C@@H]1C[C@H]2[C@@H]3CC[C@H]4C[C@](C)(O)CC[C@]4(C)[C@H]3CC[C@]2(C)[C@H]1C(=O)Cn1nnc2ccc(OC)cc21          pIC50           ≤ 6.30
2  C[C@H]1C[C@H]2C[C@](C)(O)CC[C@]2(C)[C@H]2CC[C@]3(C)[C@@H](C(=O)Cn4ncc5ccncc54)CC[C@H]3[C@H]12          pIC50     6.30 to 7.00
3  CO[C@H]1C[C@H]2[C@@H](CC[C@H]3C[C@](C)(O)CC[C@@]32C)[C@@H]2CC[C@H](C(=O)Cn3cc(C#N)cn3)[C@@]12C          pIC50           ≤ 6.30
4  CO[C@@H]1C[C@H]2[C@@H](CC[C@H]3C[C@](C)(O)CC[C@@]32C)[C@@H]2CC[C@H](C(=O)Cn3cc4ccncc4n3)[C@@]12C          pIC50     7.30 to 8.00

The reported pIC50 of the molecule COC[C@H]1C[C@H]2C[C@](C)(O)CC[C@]2(C)[C@H]2CC[C@]3(C)[C@@H](C(=O)Cn4cc5ccncc5n4)CC[C@H]3[C@H]12 was ≤ 6.30

###

# target or system: rat brain cortical membranes (GABA receptor complex, [35S]-TBPS binding)
# assay overview: Steroid inhibition of [35S]-TBPS binding
# condition notes: 3 nM [35S]-TBPS, in the presence of 5 mM GABA
property name: IC50

> print(dat)
                  compound.structure.string  measured.result
1  COC[C@@H]1C[C@H]2C[C@](C)(O)CC[C@]2(C)[C@H]2CC[C@]3(C)[C@@H](C(=O)Cn4nnc5cc(OC)ccc54)CC[C@H]3[C@H]12         ≥ 500 nM
2  CC(=O)[C@H]1[C@H](C(C)C)C[C@H]2[C@@H]3CC[C@H]4C[C@](C)(O)CC[C@]4(C)[C@H]3CC[C@@]21C         ≥ 500 nM
3  CO[C@H]1C[C@H]2[C@@H](CC[C@H]3C[C@](C)(O)CC[C@@]32C)[C@@H]2CC[C@H](C(=O)Cn3ncc4ccncc43)[C@@]12C         ≥ 500 nM
4  C[C@@H]1C[C@H]2C[C@](C)(O)CC[C@]2(C)[C@H]2CC[C@]3(C)[C@@H](C(=O)Cn4cc(C#N)cn4)CC[C@H]3[C@H]12    100 to 500 nM

Okay, next one:
The reported IC50 of the compound CO[C@@H]1C[C@H]2[C@@H](CC[C@H]3C[C@](C)(O)CC[C@@]32C)[C@@H]2CC[C@H](C(=O)Cn3ncc4ccncc43)[C@@]12C was 100 to 500 nM
